# Test system: erythroid progenitor cells (EPCs)
# experiment_notes: Fetal hemoglobin (HbF) ELISA in day 7 erythroid progenitor cells;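 also: for fetal hemoglobin induction normalized to vehicle-treated cells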
# Format: cell-based, human
# run_conditions: Homo sapiens, Erythroid progenitor cell, HbF ELISA, day 7 EPCs, 5 days; read-out: EPC ELISA (pEC50 category) (converted)
parameter_measured: EC50

Examples from the recorded data:
compound | result
CCc1c(C#N)c(SCc2ccc(N3CCCS3(=O)=O)cc2)nc(N2CCC(NCC(C)(C)C)CC2)c1C#N [Example 603] | > 31.6 µM
CCc1c(C#N)c(SC(C(N)=O)c2ccccc2)nc(N2CCNC(=O)CC2)c1C#N (stereo not shown) [Example 8] | 1 to 31.6 µM
CCc1c(C#N)c(SC(C(N)=O)c2ccccc2)nc(N2CCN(CCCN(C)C)CC2)c1C#N (stereo not shown) [Example 120] | < 0.316 µM

Now consider the entry below.
I would be grateful if you could share the reported EC50 for CCc1c(C#N)c(SC(C(N)=O)c2ccccc2)nc(N2CCC3(COC3)C2)c1C#N (stereo not shown) [Example 161] .
1 to 31.6 µM

====

# Tested on: erythroid progenitor cells (EPCs)
# experiment_notes: Fetal hemoglobin (HbF) ELISA in day 7 erythroid progenitor cells;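 also: for fetal hemoglobin induction normalized to vehicle-treated cells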
# Type: cell-based, human
# run_conditions: Homo sapiens, Erythroid progenitor cell, HbF ELISA, day 7 EPCs, 5 days; read-out: EPC ELISA (pEC50 category) (converted)
Counter-ions that a name gives are not always drawn.
parameter_measured: EC50

molecule | result
CCc1c(C#N)c(SC(C(N)=O)c2ccccc2)nc(N2CCC(NC)C2)c1C#N (centres unmarked) [Example 521] | < 0.316 µM
CCc1c(C#N)c(SCc2ccc(CNC(C)=O)cc2)nc(N2CCCN(C)CC2)c1C#N [Example 77] | < 0.316 µM
CCc1c(C#N)c(SC(C(N)=O)c2ccccc2)nc(N(C)CC(=O)N2C[C@@H](CO)[C@H](O)C2)c1C#N (some centres unmarked) [Example 649] | 1 to 31.6 µM

Field: EC50. Fill in for each record below.
1. CCc1c(C#N)c(SC(C(N)=O)c2ccccc2)nc(N(C)CC(=O)NCCn2cnnc2)c1C#N (centres unmarked) [Example 686]
2. CCc1c(C#N)c(SC(C(N)=O)c2ccc(F)cc2F)nc(N2CC[C@H](O)C2)c1C#N (some centres unmarked) [Example 430]

1: 1 to 31.6 µM; 2: 0.316 to 1 µM

Field: EC50. Fill in for each record below.
1. CCc1c(C#N)c(SCc2ccc3c(c2)OCO3)nc(N2CCCN(C)CC2)c1C#N [Example 346]
2. CN(CC(=O)NCCN)c1nc(SC(C(N)=O)c2ccccc2)c(C#N)c(C2CC2)c1C#N (centres unmarked) [Example 619, hydrochloride]
3. CCc1c(C#N)c(SC(C(N)=O)c2ccccc2)nc(N2CCN(C(=O)c3ccc(Br)cc3)CC2)c1C#N (centres unmarked) [Example 310]

["> 31.6 µM", "1 to 31.6 µM", "< 0.316 µM"]

====

# test_system: DNMT1 (Homo sapiens, UniProt P26358)
# Sequence (P26358 whole entry, looked up): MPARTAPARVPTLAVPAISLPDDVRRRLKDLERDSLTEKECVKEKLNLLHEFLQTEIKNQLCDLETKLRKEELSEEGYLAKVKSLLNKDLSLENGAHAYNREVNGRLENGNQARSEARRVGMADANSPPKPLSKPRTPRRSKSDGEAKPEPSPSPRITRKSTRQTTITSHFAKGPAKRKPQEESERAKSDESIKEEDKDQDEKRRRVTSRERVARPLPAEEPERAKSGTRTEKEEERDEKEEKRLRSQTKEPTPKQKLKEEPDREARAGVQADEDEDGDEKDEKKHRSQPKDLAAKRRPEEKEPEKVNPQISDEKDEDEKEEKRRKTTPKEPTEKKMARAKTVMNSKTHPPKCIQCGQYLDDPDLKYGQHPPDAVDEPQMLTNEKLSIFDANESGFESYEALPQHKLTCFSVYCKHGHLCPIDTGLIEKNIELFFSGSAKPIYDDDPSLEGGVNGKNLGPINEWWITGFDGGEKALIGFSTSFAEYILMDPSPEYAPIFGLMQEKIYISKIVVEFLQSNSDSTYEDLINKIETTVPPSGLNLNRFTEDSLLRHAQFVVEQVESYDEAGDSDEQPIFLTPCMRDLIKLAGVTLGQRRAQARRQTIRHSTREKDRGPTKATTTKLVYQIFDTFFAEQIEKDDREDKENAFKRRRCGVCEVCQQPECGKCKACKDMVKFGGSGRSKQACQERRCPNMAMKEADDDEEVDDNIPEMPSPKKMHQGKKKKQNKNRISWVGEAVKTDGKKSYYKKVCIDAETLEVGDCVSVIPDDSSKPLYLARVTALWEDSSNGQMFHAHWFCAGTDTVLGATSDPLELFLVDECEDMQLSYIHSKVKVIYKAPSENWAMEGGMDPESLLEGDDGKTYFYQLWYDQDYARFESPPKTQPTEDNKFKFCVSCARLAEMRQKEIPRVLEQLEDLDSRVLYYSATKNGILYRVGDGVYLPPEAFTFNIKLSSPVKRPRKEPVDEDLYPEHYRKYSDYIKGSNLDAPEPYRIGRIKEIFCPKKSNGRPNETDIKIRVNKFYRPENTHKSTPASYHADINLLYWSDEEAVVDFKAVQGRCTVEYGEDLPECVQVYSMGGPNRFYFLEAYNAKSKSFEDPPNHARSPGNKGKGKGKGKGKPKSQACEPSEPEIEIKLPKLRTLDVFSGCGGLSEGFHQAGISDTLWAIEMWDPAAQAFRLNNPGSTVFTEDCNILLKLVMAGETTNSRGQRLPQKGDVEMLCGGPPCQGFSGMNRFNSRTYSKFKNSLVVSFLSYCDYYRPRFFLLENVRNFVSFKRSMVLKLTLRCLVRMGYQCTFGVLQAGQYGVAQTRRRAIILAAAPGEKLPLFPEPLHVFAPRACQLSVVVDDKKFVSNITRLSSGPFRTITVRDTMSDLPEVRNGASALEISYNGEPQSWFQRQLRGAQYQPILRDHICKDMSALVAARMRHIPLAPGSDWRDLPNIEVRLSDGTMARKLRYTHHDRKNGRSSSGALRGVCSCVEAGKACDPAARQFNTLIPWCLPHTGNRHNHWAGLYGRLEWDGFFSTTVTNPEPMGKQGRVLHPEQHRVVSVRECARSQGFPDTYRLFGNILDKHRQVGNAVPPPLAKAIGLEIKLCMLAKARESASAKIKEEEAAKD
# experiment_notes: DNMT1 biochemical activity, breaklight assay and/or SPA assay
# run_conditions: binned activity in either the breaklight or the SPA assay; read-out: DNMT1 BioChemical (pIC50 category) (converted)
Would you kindly list IC50 for each of these molecules?

Examples from the recorded data:
molecule | parameter_measured | result
CCc1c(C#N)c(SC(C(N)=O)c2ccccc2)nc(N(C)CCN2CCOCC2)c1C#N (stereo not shown) [Example 11] | IC50 | 316 to 1000 nM
CCc1c(C#N)c(SCc2ccc(CNC(=O)OC(C)(C)C)cc2)nc(N2CCCN(C)CC2)c1C#N [Example 69] | IC50 | 1000 to 31600 nM
CCc1c(C#N)c(SC(C(N)=O)c2ccccc2)nc(N2CC[C@@]3(CCCN3S(C)(=O)=O)[C@@H](O)C2)c1C#N (stereo partly shown) [Example 132] | IC50 | 316 to 1000 nM
CCc1c(C#N)c(SCc2ccc(CNC3CCNC3=O)cc2)nc(N2CCCN(C)CC2)c1C#N (stereo not shown) [Example 385] | IC50 | 316 to 1000 nM
CCc1c(C#N)c(SCc2ccccc2)nc(N2CCC(N)CC2)c1C#N [Example 81] | IC50 | 316 to 1000 nM
CCc1c(C#N)c(SC(C(N)=O)c2ccccc2)nc(N(C)CC(C)(O)C(N)=O)c1C#N (stereo not shown) [Example 261] | IC50 | 316 to 1000 nM
CCc1c(C#N)c(SCCN2CCOCC2)nc(SC(C(N)=O)c2ccccc2)c1C#N (stereo not shown) [Example 201] | IC50 | 316 to 1000 nM
CCc1c(C#N)c(SC(C(N)=O)c2ccccc2)nc(N2CCN(Cc3cnco3)CC2)c1C#N (stereo not shown) [Example 184] | IC50 | 316 to 1000 nM
CCc1c(C#N)c(SC(C(N)=O)c2ccccc2)nc(N2CCC(C#N)CC2)c1C#N (stereo not shown) [Example 319] | IC50 | 1000 to 31600 nM
CCc1c(C#N)c(S[C@H](C(N)=O)c2ccccc2)nc(N2CC[C@@H](N)[C@@H](F)C2)c1C#N [Example 531] | IC50 | 1000 to 31600 nM

Field: IC50. Fill in for each record below.
1. CCc1c(C#N)c(SCc2ccc(CNC(=O)C(C)C)cc2)nc(N2CCCN(C)CC2)c1C#N [Example 88]
2. CCc1c(C#N)c(SC(C(N)=O)c2ccc(F)cc2)nc(N2CCC(N(C)C)CC2)c1C#N (stereo not shown) [Example 207]
3. CCc1c(C#N)c(SC(C(N)=O)c2ccccc2)nc(N2CC[C@@H](NC(=O)OC(C)(C)C)[C@@H](F)C2)c1C#N (single isomer, unassigned) [Example 534]
4. CCc1c(C#N)c(SC(C(N)=O)c2ccccc2)nc(N2CCN(Cc3cc[nH]c3)CC2)c1C#N (stereo not shown) [Example 182]
5. CCOc1c(C#N)c(SC(C)C(N)=O)nc(N2CCCN(CCO)CC2)c1C#N (stereo not shown) [Example 212]
6. CCc1c(C#N)c(SC(C(N)=O)c2ccccc2)nc(N2CCN(Cc3ccncc3)CC2)c1C#N (stereo not shown) [Example 173]

316 to 1000 nM
316 to 1000 nM
< 316 nM
316 to 1000 nM
316 to 1000 nM
316 to 1000 nM

====

Would you kindly list IC50 for each of these molecules?
# test_system: DNMT1 (Homo sapiens)
# experiment_notes: DNMT1 biochemical activity, breaklight assay and/or SPA assay
# run_conditions: binned activity in either the breaklight or the SPA assay; read-out: DNMT1 BioChemical (pIC50 category) (converted)

Examples from the recorded data:
molecule | IC50
CCc1c(C#N)c(SC(C(N)=O)c2ccccc2)nc(N(C)CCOC)c1C#N (centres unmarked) | 1000 to 31600 nM
CCc1c(C#N)c(SC(C(N)=O)c2ccccc2)nc(N2CC(OP(=O)(O)O)C2)c1C#N (centres unmarked) | 1000 to 31600 nM
CCc1c(C#N)c(S[C@@H](C(N)=O)c2ccccc2)nc(N(C)CC(N)=O)c1C#N (single isomer, unassigned) | < 316 nM
CCc1c(C#N)c(SC(C(N)=O)c2ccc(F)cc2)nc(N2CCC(NCC(C)(C)O)CC2)c1C#N (centres unmarked) | < 316 nM
CCc1c(C#N)c(SC(C(N)=O)c2ccccc2)nc(N2CCC(OC3COC3)CC2)c1C#N (centres unmarked) | 316 to 1000 nM
CCc1c(C#N)c(SCCN(C)C)nc(SC(C(N)=O)c2ccccc2)c1C#N (centres unmarked) | 316 to 1000 nM
CCc1c(C#N)c(SC(C(N)=O)c2ccnc(C)c2)nc(N2CCCN(C)CC2)c1C#N (centres unmarked) | 316 to 1000 nM

Now consider the entry below.
I would be grateful if you could share the reported IC50 for CCc1c(C#N)c(SCc2ccc(N3CCN(C)CC3)cc2)nc(N2CCCN(C)CC2)c1C#N .
316 to 1000 nM

====

Would you kindly list EC50 for each of these molecules?
# System: erythroid progenitor cells (EPCs)
# experiment_notes: Fetal hemoglobin (HbF) ELISA in day 7 erythroid progenitor cells;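 also: for fetal hemoglobin induction normalized to vehicle-treated cells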
# Type: cell-based, human
# run_conditions: Homo sapiens, Erythroid progenitor cell, HbF ELISA, day 7 EPCs, 5 days; read-out: EPC ELISA (pEC50 category) (converted)
Counter-ions that a name gives are not always drawn.

Examples from the recorded data:
molecule | test_system | result
CCc1c(C#N)c(SCc2ccc(CNC3CCNC3=O)cc2)nc(N2CCCN(C)CC2)c1C#N (stereo not shown) | erythroid progenitor cells (EPCs) | > 31600 nM
CCc1c(C#N)c(SC(C(N)=O)c2ccccc2)nc(N2CCC(NC(=O)C3(N)CCOCC3)CC2)c1C#N (stereo not shown) [Example 140, Trifluoroacetic Acid Salt] | erythroid progenitor cells (EPCs) | < 316 nM
CCc1c(C#N)c(SC(C(N)=O)c2ccccc2)nc(N2CCC[C@@H](CNC(=O)CN)C2)c1C#N (stereo partly shown) | erythroid progenitor cells (EPCs) | 316 to 1000 nM

Now consider the entry below.
I would be grateful if you could share the reported EC50 for CCc1c(C#N)c(SC(C(N)=O)c2ccccc2)nc(N2CCC(C3CCNCC3)CC2)c1C#N (stereo not shown) .
< 316 nM
